- tested-system: DNA gyrase subunit B (Staphylococcus aureus)
- Sequence (P0A0K8 whole entry): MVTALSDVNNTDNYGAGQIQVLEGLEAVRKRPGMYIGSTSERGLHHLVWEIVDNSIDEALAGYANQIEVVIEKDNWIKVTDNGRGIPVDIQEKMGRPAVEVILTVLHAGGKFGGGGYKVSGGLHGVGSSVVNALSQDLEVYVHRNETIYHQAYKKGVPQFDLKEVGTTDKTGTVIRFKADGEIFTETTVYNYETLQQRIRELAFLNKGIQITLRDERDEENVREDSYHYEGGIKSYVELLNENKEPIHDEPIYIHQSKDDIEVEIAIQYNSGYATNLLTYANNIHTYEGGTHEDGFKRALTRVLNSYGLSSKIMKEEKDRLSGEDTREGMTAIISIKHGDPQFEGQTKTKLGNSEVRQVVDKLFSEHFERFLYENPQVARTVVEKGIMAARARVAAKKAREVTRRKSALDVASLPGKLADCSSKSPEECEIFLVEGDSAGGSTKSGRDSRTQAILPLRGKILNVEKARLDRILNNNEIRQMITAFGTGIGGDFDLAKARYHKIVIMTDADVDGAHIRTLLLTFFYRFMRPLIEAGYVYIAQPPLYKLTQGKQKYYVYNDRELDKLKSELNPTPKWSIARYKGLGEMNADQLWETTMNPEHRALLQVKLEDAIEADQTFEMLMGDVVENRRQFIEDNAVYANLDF
- protocol-description: Inhibition of Staphylococcus aureus Gyrase B ATPase activity by fluorescence analysis
endpoint-name: IC50 (nM)

> print(dat)
                           structure.string  modifier  measured
1  CCCn1c(=O)ccc2c(-c3cnc(-c4ccc(C(=O)O)nc4)s3)n[nH]c21         <         8
2  CCOc1cccc2c(-c3cnc(-c4ccc(C(=O)O)c(F)c4)s3)n[nH]c12         <         8
3  CCCc1cccc2c(-c3cnc(-c4cnc(C(=O)O)c(O)c4)s3)n[nH]c12         =        11
4  CCCc1c(OC)ccc2c(-c3cnc(-c4ccc(C(=O)O)c(F)c4)s3)n[nH]c12         =        15
